Where these numbers come from: PubChem BioAssay AID504850

- Measurement Notes: Confirmation screen for delayed death inhibitors of the malarial parasite plastid, 48 hour incubation; note: nearly all actives have a fitted effect of over 65% in size
- Protocol Conditions: P. falciparum-infected erythrocytes, luciferase growth; series mostly up to 28.7 µM
Hit rate of the full screen: of about 2,300 compounds, about 1,200 (52%) were called active. Roughly 34% stayed inconclusive and do not appear here. Calls come from the whole dose curve; as a rule, active = well fitted inhibition curve with a large enough effect; inconclusive = small, poorly fitted or top-dose-only effect, or effect the other way; inactive = no such curve, though single readings can be large or run the other way. The set was probably picked from earlier hits. This is one part of the list.
Hi there, use one of these labels in your reply, thanks! True for active, False for inactive

See these solved cases before continuing.
- Compound: "CCN(CC)S(=O)(=O)c1cc(NC(=O)C(C)OC(=O)c2[nH]c(C)c(C(C)=O)c2C)ccc1C (stereo unspecified)"
  Classification: "True"
- Compound: "Cc1nc([N+](=O)[O-])c(Br)n1CC(=O)c1ccc(F)cc1"
  Classification: "True"
- Compound: "COc1cccc(NC(=O)c2nc(S(C)(=O)=O)ncc2Cl)c1"
  Classification: "False"
- Compound: "CSc1nnc(C)c(=O)[nH]1"
  Classification: "False"
- Compound: "COc1cc(/C=C2\\CC(C(C)(C)C)C/C(=C\\c3cc(OC)c(OC)c(OC)c3)C2=O)cc(OC)c1OC (stereo unspecified)"
  Classification: "True"

# evaluate next
Hi, sorry to bother you, what did the test record for CC(=O)c1ccccc1OCC(O)CN1CCN(C(c2ccccc2)c2ccccc2)CC1 (stereo unspecified) ?
True
